Measured values drawn from PubChem BioAssay (NCI) for this set.

Test system: DU-145 prostate
Assay: NCI tumour cell line growth inhibition, 48 h
Quick reference: GI50 of the listed items.

Some solved entries appear below for comparison.
                                 cpd_smiles  measured_parameter  measured_value
0  CCn1nc(-c2ccc(C(=O)OC)cc2)nc2c(=O)n(C)c(=O)nc1-2                GI50         1.11 µM
1  Nc1nc(/C=C\c2ccc([N+](=O)[O-])s2)nc(N2CCOCC2)n1                GI50           11 µM
2                 O=C1OCC(C#Cc2ccccc2)=C1Br                GI50         3.42 µM
3            CCN(Cc1ccccn1)c1ccc(CO)c(Cl)c1                GI50        > 100 µM
4  O=C1CCC/C=C\C[C@H]2C=CC(=O)/C2=C/C[C@H](CCc2cccc(C(F)(F)F)c2)O1                GI50         1.66 µM

Can you look up GI50 on DU-145 prostate for `COc1ccc(-c2nc3c(-c4ccccc4)nc(-c4ccccc4)cn3c2-c2ccc(OC)cc2)cc1` ? > 100 µM

Can you look up GI50 on DU-145 prostate for `Cc1ccc2cc3c(cc(C)c4ccccc43)c3c2c1CC3` ? > 100 µM

Can you look up GI50 on DU-145 prostate for `O=C(/C=C\Sc1ccccn1)c1cccc(Br)c1` ? 16.3 µM

====

System: SK-MEL-28 melanoma
Test: NCI tumour cell line growth inhibition, 48 h
MEASURED_PARAMETER: TGI

Some solved entries appear below for comparison.
>>> print(df.to_string())
                                   molecule  measured_parameter  measured_value
0  COc1ccc(Nc2nc3cc(C(F)(F)F)ccc3n3cccc23)cc1OC                 TGI        > 100 µM
1          c1ccc2nc(-c3ccc4c(c3)OCO4)ccc2c1                 TGI        > 100 µM
2  COC(=O)C(CCCCCCCC(C(=O)OC)c1nc2n(c1O)C(=N)N=N2)c1nc2n(c1O)C(=N)N=N2 (stereo unspecified)                 TGI        > 100 µM
3  CCOC(=O)C(Br)(C(N)=O)C1(O)OC(c2ccccc2)=C(Br)C1=O (stereo unspecified)                 TGI        > 100 µM
4  CC1(C)O[C@@H](CC/C=C/CO)[C@H](CC/C=C/CO)O1                 TGI        > 100 µM
5               COc1ccc(NC(=S)Nc2ccccc2)cc1                 TGI        > 100 µM
6  COC(=O)C1=C(C(=O)OC)SC(=C(Cl)C(=S)Oc2ccccc2N)S1                 TGI         > 50 µM
7  C(CCCCc1nnc(N2CCOCC2)o1)CCCc1nnc(N2CCOCC2)o1                 TGI        > 100 µM
8  C=CC(C)c1cccc(C=O)c1O (stereo unspecified)                 TGI        > 100 µM
9  O=c1[nH]ccc2c1ccn2C1CC(O)C(CO)O1 (stereo unspecified)                 TGI        > 100 µM

Entry under review: CCc1n[nH]c(=O)n1N1C(=O)C2CCCCC2C1=O (stereo unspecified) . Reported TGI? > 100 µM

====

Test system: MALME-3M melanoma
Test: NCI tumour cell line growth inhibition, 48 h
Quick reference: TGI of the listed items.

Some solved entries appear below for comparison.
                                   compound  measured_value
0  COC(=O)[C@]1(c2cc3ccccc3[nH]2)CC2CN(C(=O)OCc3ccccc3)C1C=C2OC (some centres undefined)         66.4 µM
1  COC(=O)[C@@]1(C)CCC[C@]2(C)[C@H]3Cc4occc4[C@H](C)[C@@H]3CC[C@@]12O         52.4 µM
2              CN(C)CCCNC(=O)c1cccc2ccccc12        > 100 µM
3                     C=C(C)c1nc(C#N)c(N)o1        > 100 µM
4  O=c1oc2c3ccc4ccccc4c3n(CCCN3CCCCC3)c2c2ccccc12           41 µM

Entry under review: `Nc1cc(N)c2nc(-c3ccccc3)c(NCCc3ccc(Cl)c(Cl)c3)nc2c1` . Reported TGI? 4.5 µM

Entry under review: `Oc1ccc[n+](Cc2ccccc2)c1` . Reported TGI? > 100 µM

Entry under review: `O=[N+]([O-])c1ccc2sc(C=Nc3ccc(O)cc3)cc2c1` . Reported TGI? > 100 µM

Entry under review: CC(CO)CCNc1ncnc2c1ncn2CCC#N (centres undefined) . Reported TGI? > 100 µM

Entry under review: `O=C(O)/C=C\C(=O)c1ccc(Cl)cc1` . Reported TGI? 34.5 µM

Entry under review: `Cn1c(=O)c2[nH]c(CSCc3ccccc3)nc2n(C)c1=O` . Reported TGI? > 100 µM

Entry under review: O=C(OCCO)C1CC2CC1C1(C2)OCCO1 (centres undefined) . Reported TGI? > 100 µM

Entry under review: `O=C(O)CNS(=O)(=O)c1ccc(NC(=O)c2ccccc2[N+](=O)[O-])cc1` . Reported TGI? > 100 µM

Entry under review: COC(=O)C(CCCCCCCC(C(=O)OC)c1nc2n(c1O)C(=N)N=N2)c1nc2n(c1O)C(=N)N=N2 (centres undefined) . Reported TGI? > 100 µM

====

System: RXF 393 renal
Assay: NCI tumour cell line growth inhibition, 48 h
Quick reference: TGI of the listed items.
# value in µM; strip the unit string

                                 cpd_smiles  subject_of_test  measured_value
0  COc1ccc(/C=C/c2cc(OC)c(OC)c(OC)c2)cc1O[Si](C)(C)C(C)(C)C    RXF 393 renal            9.02
1  CC12c3c4cccc3Oc3cc(N)cc(c31)Oc1cc(N)cc(c12)O4    RXF 393 renal            2.67
2  O=C1CCC/C=C\C[C@H]2C=CC(=O)/C2=C/C[C@H](CCc2cccc(C(F)(F)F)c2)O1    RXF 393 renal            3.08

Entry under review: `CCN(CC)CCNC(=O)c1cc2cc(NC(=O)c3cc4cc(N)ccc4[nH]3)ccc2[nH]1` . Reported TGI? 61.3

Entry under review: `COc1ccc(Nc2nc3cc(C(F)(F)F)ccc3n3cccc23)cc1OC` . Reported TGI? 29

Entry under review: `Cc1c(-c2c(C)c(=O)c3c(C(C)C)c(=O)c(=O)c(C=O)c-3c2=O)c(O)c2c(C=O)c(O)c(O)c(C(C)C)c2c1O` . Reported TGI? 6.99

====

System: OVCAR-3 ovarian
Assay: NCI tumour cell line growth inhibition, 48 h
Quick reference: TGI of the listed items.

Can you look up TGI on OVCAR-3 ovarian for `O=C(O)c1cccc(SSc2cccc(C(=O)O)c2)c1` ? > 100 µM

====

System: HL-60(TB) leukemia
Experiment: NCI tumour cell line growth inhibition, 48 h; in the data active means GI50 below about 0.43 µM; inactive means the rest
One label from this list, please: active, inactive

>>> df
                                   compound       cat
0  COc1cc(-c2nn(-c3ccc(NC(=O)NCCNS(=O)(=O)c4ccc(F)cc4)cc3)cc2-c2ccncc2)ccc1Cl    active
1        NCCNC1=CC(=O)c2nc3ccccc3c3ccnc1c23  inactive
2  NC(=O)c1c(Br)n(C2OC(CO)C(O)C2O)c2ncnc(N)c12 (centres undefined)  inactive

Then this compound:
Test call, this compound: `Nc1ccccc1NC(=O)c1ccc(CNC(=O)OCc2cccnc2)cc1` inactive

====

Tested on: HOP-62 NSCLC
Experiment: NCI tumour cell line growth inhibition, 48 h
Quick reference: TGI of the listed items.

Some solved entries appear below for comparison.
>>> print(df.to_string())
                                   compound  measured_value
0  COc1ccc(Cc2c(-c3ccc(C)cc3)n[nH]c(=O)c2C2C(=O)N(c3ccccc3)N=C2c2ccccc2)cc1 (stereo not drawn)        > 100 µM
1  O=C1C(Br)=C(C2=CC(=P(c3ccccc3)(c3ccccc3)c3ccccc3)C=C2)C(=O)C(Br)=C1C1=CC(=P(c2ccccc2)(c2ccccc2)c2ccccc2)C=C1        > 100 µM
2  CC1NOC(=O)C1N=Nc1ccccc1Br (stereo not drawn)        > 100 µM

Entry under review: C/C(=N\OCC(O)CNC(C)C)c1ccc2c(c1)NC(=O)CS2 (stereo not drawn) . Reported TGI? > 100 µM

Entry under review: `CCCNC1=C(C)C(=O)C2=C(C1=O)[C@H](COC(N)=O)[C@]1(OC)[C@@H]3N[C@@H]3CN21` . Reported TGI? 4.42 µM
